Values compiled from patent US20190241671A1.

Biological target: T1, CD19 antigen on Daudi lymphoma cells (human, UniProt P15391 20-556)
T1 construct: whole, on cells; also called Daudi cells
T1 sequence (looked up): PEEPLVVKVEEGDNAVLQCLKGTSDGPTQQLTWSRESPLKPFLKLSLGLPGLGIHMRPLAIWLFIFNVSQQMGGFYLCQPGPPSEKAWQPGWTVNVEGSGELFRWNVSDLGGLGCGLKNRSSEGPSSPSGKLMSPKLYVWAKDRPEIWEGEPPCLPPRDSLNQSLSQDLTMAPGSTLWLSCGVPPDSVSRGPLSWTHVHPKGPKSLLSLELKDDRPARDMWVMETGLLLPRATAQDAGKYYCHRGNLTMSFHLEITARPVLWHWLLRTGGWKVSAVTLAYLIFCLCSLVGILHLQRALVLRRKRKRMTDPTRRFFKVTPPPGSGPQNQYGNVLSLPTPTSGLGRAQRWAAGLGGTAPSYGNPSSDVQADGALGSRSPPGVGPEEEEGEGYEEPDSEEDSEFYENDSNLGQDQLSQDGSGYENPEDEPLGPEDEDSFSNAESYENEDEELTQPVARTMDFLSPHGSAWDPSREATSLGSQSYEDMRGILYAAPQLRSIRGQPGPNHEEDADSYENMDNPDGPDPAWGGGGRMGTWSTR
Assay: FACS competition on Daudi cells; unlabeled antibody 50 ng/ml (0.5x) vs competitor biotin-B4 VH0/VK0 100 ng/ml
Reported endpoint: % inhibition of labeled B4 binding (%)
Express your answer in %, writing the number without its unit.

As a guide, the following entries are already answered.
{"columns": ["Binder", "Reported endpoint", "Measured result"],
 "data": [
  ["B4 VHv3/VKv3 antibody (antibody, V domains shown) VH: QVQLEQPGAEVKKPGASVKVSCKASGYTFTSNWMHWVKQRPGQGLEWIGEIDPSDSYTNYNQKFKGKAKLTVDKSSSTAYMEVSDLTAEDSAVYYCARGSNPYYYAMDYWGQGTSVTVSS VL: QIVLTQSPATLSASPGEKATMTCSASSGANYMHWYQQKPGTSPKRWIYDTSKLASGVPARFSGSGSGTSYSLTIESMEAEDAATYYCHQRGSYTFGGGTKLEIK", "% inhibition of labeled B4 binding", 12],
  ["B4 VHv3/VKv4 antibody (antibody, V domains shown) VH: QVQLEQPGAEVKKPGASVKVSCKASGYTFTSNWMHWVKQRPGQGLEWIGEIDPSDSYTNYNQKFKGKAKLTVDKSSSTAYMEVSDLTAEDSAVYYCARGSNPYYYAMDYWGQGTSVTVSS VL: QIVLTQSPATLSASPGEKATMTCSASSGVNYMHWYQQKPGTSPKRWIYDTDKTASGVPARFSGSGSGTSYSLTISSMEAEDAATYYCHQRGSYTFGGGTKLEIK", "% inhibition of labeled B4 binding", 12],
  ["B4 VHv4/VKv4 antibody (antibody, V domains shown) VH: QVQLEQPGAEVVKPGASVKVSCKTSGYTFTSNWMHWVKQTPGKGLEWIGEIDPSDSYTNYNQKFDGKAKLTVDKSSSTAYMEVSDLTAEDSATYYCARGSNPYYYAMDYWGQGTSVTVSS VL: QIVLTQSPATLSASPGEKATMTCSASSGVNYMHWYQQKPGTSPKRWIYDTDKTASGVPARFSGSGSGTSYSLTISSMEAEDAATYYCHQRGSYTFGGGTKLEIK", "% inhibition of labeled B4 binding", 12],
  ["B4 VHv2/VKv1 antibody (antibody, V domains shown) VH: QVQLQQPGAEVVKPGASVRLSCKTSGYTFTSNWMHWVKQRPGQGLEWIGEIDPSDSYTNYNQKFKGKAELTVDKSSSTAYMEVSDLTSEDSAVYYCARGSNPYYYAMDYWGQGTSVTVSS VL: QIALTQEPAIMSASPGEKVTMTCSASSGVNYMHWYQQKPGTSPKRWIYDTSKLDSGVPARFSGSGSGTSYSLTISSMEAEDAATYYCHQRGSYTFGGGTKLEIK", "% inhibition of labeled B4 binding", 8]
]}

Qu. What value of % inhibition of labeled B4 binding has been recorded for this entry: B4 VHv4/VKv3 antibody (antibody, V domains shown) VH: QVQLEQPGAEVVKPGASVKVSCKTSGYTFTSNWMHWVKQTPGKGLEWIGEIDPSDSYTNYNQKFDGKAKLTVDKSSSTAYMEVSDLTAEDSATYYCARGSNPYYYAMDYWGQGTSVTVSS VL: QIVLTQSPATLSASPGEKATMTCSASSGANYMHWYQQKPGTSPKRWIYDTSKLASGVPARFSGSGSGTSYSLTIESMEAEDAATYYCHQRGSYTFGGGTKLEIK
Ans. 12
